# Tgt: T1, mouse IL-2Rα (mouse, UniProt P01590 22-236, limits assumed)
# T1 construct: recombinant protein; also called mo IL-2R; mouse IL-2Ra
# T1 sequence (looked up): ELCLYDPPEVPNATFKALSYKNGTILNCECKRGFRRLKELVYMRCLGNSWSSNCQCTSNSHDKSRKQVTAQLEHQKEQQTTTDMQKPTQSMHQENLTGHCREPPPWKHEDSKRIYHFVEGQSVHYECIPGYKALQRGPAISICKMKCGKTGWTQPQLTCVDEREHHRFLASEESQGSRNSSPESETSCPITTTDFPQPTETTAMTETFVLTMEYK
# Protocol summary: SPR, P.E. on immobilised antigen
Below, each of the binders is paired with its reported koff value.
Outcome measure: koff

• FJ1427_P035MP05B08 (VHH, periplasmic extract; also called clone nr) VHH: QLQLVESGGGLVQAGGSLRLSCVAHGLTFDGYAIGWFRQAPGKELEGVSYITGSDGSRYYADSVKGRFTISSDVAKNTVYLHMNNLKPDDAARYYCAVDRLGSRGAYVSAWWRSSDMDLWGKGTLVTVSS = 0.00608 s⁻¹
• FJ1427_P035MP05C06 (VHH, periplasmic extract; also called clone nr) VHH: QVQLVESGGGLVQAGGSLRLSCAASGLTFDGYAIGWFRQASGKEREGVSYINGRDGSTFYTDSVKGRFIISSDNAKNTVDLQMNSLKPDDAAVYYCAVDRLGSRGAYVSSWWRSPDMDLWGKGTLVTVSS = 0.00311 s⁻¹
• FJ1427_P035MP05C10 (VHH, periplasmic extract; also called clone nr) VHH: QLQLVESGGGLVQTGGSLRLSCSTSGFTFDGYAIGWFRQAPGKEPEGVSYITGSDGSTYYADSVKGRFTISSDNAKNTVYLHMNSLKPDDAAVYYCAIDRLGSGGAYVPIWWRSSDMDLWGKGTLVTVSS = 0.00403 s⁻¹
• FJ1427_P035MP05H09 (VHH, periplasmic extract; also called clone nr) VHH: QLQLVESGGDLVQPGGSLRLSCTASGLTFDGYAIGWFRQAPGKEREGVSYITGSNGSTYYIDSVKGRFTISSDIAKSTVYLQMNTLKPEDTAVYYCAVDRLGSRGLYASSWWRSGDMDLWGKGTLVTVSS = 0.00244 s⁻¹
• FJ1427_P035MP05G08 (VHH, periplasmic extract; also called clone nr) VHH: QLQLVESGGGLVQAGGSLRLSCTASGLTFEGYAIGWFRQAPGKEREGVSYITGSDASTYYIDSVKGRFTISSDFAKSTVYLQMNNLKPEDTAVYYCAVDRLGSRGGYASSWWRSGDMDLWGKGTLVTVSS = 0.00258 s⁻¹
• FJ1427_P035MP05H08 (VHH, periplasmic extract; also called clone nr) VHH: QLQLVESGGGLVQAGGSLRLSCAASGLTFDGYAIGWFRQASGKEREGVSYINGRDGSTFYADSVKGRFIISSDNAKNTVDLQMNSLKPDDAAVYYCAVDRLGSRGAYVSTWWRSPDMDLWGKGTLVTVSS = 0.0129 s⁻¹
• FJ1427_P035MP05A05 (VHH, periplasmic extract; also called clone nr; 417) VHH: QLQLVESGGGLVQAGGSLRLSCAASGLTFDGYAIGWFRQASGKEREGVSYINGRDGSTFYADSVKGRFIISSDNAKNTVDLQMNSLKPDDAAVYYCAVDRLGSRGAYVSTWWRPPDMDLWGKGTLVTVSP = 0.0172 s⁻¹

Each recorded value in this set is attributed to patent US20240409645A1.
